In this section we review reported Athena reading (relative luminescence units) values for a set of binders.
- system.under.test: T1, Centromere B (UniProt P07199)
- T1 sequence (looked up): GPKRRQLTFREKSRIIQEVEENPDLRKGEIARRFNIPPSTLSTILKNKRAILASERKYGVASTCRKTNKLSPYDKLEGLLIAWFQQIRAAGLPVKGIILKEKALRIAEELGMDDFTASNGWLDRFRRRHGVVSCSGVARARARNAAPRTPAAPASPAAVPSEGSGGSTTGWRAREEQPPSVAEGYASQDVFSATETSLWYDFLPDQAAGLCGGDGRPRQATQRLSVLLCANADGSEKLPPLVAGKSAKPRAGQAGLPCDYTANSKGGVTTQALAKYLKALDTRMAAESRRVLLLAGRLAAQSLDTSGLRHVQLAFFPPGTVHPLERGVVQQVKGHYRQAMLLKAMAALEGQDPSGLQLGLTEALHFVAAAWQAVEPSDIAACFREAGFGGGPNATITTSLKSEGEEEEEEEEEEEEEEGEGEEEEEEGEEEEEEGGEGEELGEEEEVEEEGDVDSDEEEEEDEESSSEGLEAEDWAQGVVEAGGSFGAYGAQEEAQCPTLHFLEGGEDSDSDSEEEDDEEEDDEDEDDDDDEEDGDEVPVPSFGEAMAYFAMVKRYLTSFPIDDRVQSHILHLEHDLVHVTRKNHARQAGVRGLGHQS
- experiment.description: AtheNA, Ab 6.25 ug/ml
observable: Athena reading (relative luminescence units)

# binder, recorded.value
data = [
    ("CH236_4A/293i (antibody, from a related filing, V domains shown) VH: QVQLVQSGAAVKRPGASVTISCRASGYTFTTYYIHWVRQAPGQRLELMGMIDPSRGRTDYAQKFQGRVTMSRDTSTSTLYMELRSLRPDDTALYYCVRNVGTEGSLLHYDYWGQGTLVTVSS VL: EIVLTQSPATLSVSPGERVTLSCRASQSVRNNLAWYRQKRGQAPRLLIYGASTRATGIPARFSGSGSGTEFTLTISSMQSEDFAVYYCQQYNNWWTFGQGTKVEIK", 208),
    ("CH241 (antibody, from a related filing, V domains shown) VH: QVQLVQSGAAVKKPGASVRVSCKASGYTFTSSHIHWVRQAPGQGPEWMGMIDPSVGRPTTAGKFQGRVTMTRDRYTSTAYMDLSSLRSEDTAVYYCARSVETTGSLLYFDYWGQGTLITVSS VL: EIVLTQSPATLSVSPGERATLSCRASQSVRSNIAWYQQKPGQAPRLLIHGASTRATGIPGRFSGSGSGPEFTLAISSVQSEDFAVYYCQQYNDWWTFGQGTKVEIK", 6),
]
